Assay: Plasma protein binding in human
Assay type: ADME, cell-free
Conditions: read-out: PPB (converted)
value_type: fraction unbound
Give bare numbers.

Q: Supply fraction unbound value. Item: Cc1noc(Cn2nc3ccc(-c4ccc(OC(F)(F)F)cc4)cn3c2=O)n1
A: 0.05

---

Assay: Oral bioavailability in dog
Format: ADME, organism-based, Canis lupus familiaris
Conditions: in vivo
value_type: bioavailability (%)
Numbers only, in %.

Q: Supply bioavailability value. Item: Cc1noc(Cn2nc3ccc(-c4ccc(OC(F)(F)F)cc4)cn3c2=O)n1
A: 72.8

---

Assay: Volume of distribution in rat
Format: ADME, organism-based
Conditions: in vivo
value_type: Vd (L/kg)
Numbers only, in L/kg.

Q: Supply Vd value. Item: Cc1noc(Cn2nc3ccc(-c4ccc(OC(F)(F)F)cc4)cn3c2=O)n1
A: 1.95
